- assayInfo: soluble on expression in E. coli; label from the status in PepcDB or PDB records
measuredProperty: soluble on expression in E. coli

sequenceRecord	reading
MSEEWEPKIVGFCCNWCTYGGADTAGVGRMQYPPSIRIIRVMCSGRIEPSFILKAFKEGADGVFIGGCHLGDCHYDAGNYKWQRRVMMLYDMLDELGIGRERVLHEWISASEGEKFQTKMNEIYDRIKALGPCTLNENLK	not soluble
MGHHHHHHSHMSSRGHSTLPRTLMAPRMISEGDIGGIAQITSSLFLGRGSVASNRHLLQARGITCIVNATIEIPNFNWPQFEYVKVPLADMPHAPIGLYFDTVADKIHSVSRKHGATLVHCAAGVSRSATLCIAYLMKFHNVCLLEAYNWVKARRPVIRPNVGFWRQLIDYERQLFGKSTVKMVQTPYGIVPDVYEKESRHLMPYWGI	not soluble
MGSDKIHHHHHHMISQNSCQINESDLKNLKDWFYRYVRSFYSSDSIIQQAILLKEKHSLRVCNEILNIGKKLDLSHNALRLAEVMALFHDIGRFQQFVRYQTFVDQKSENHGELGVRILKQEKALAALDRDARELILKAISYHNRLTIPENESPICTYFSRLLRDADKLDIYYVVTTCYNSNGTERKAAVELDLPDTPEVSGEILISLIEEKMISLHQLKSLNDFKLLQMAWVYDINYLPTFRMIYERNYLRKIRDTLPGTEEIEQVYCKLISFLKAKL	not soluble
MDCIRVTTIGYYHRDGDMRVTPGLLPKILNRECLKPLREDFFNLNIEVPDSGQGENNMVSFLDYISQTKCLEDAQPDFVTNKQILTALTGNKPFTIHAIHLKGTIFSFKSGEVRYQDTKNFGGAFEHFCTRTRNDEQLETDDTVRKAVFKAEIPRGNTQFYRVLYSGQIDAIDNEVDRKHYELKIMSQGLNEYFWKEKSCKFYWQSVFGNAPVLIIGSRSGQYSTQTTNNYPPYSLYKVEELKRDRIPSMAARCRKIPGRFGPAPPWKISEGEDNALYFLDLVKDNVINDGDCFSFTRTDENPDWDVKRDEESAAQFRDVVLQYLDR	not soluble
MKEKILLGGYTKRVSKGVYSVLLDTKAAELSSLNEVAAVQNPTYITLDEKGHLYTCAADSNGGGIAAFDFDGETATHLGNVTTTGAPLCYVAVDEARQLVYGANYHLGEVRVYKIQANGSLRLTDTVKHTGSGPRPEQASSHVHYSDLTPDGRLVTCDLGTDEVTVYDVIGEGKLNIATIYRAEKGMGARHITFHPNGKIAYLVGELNSTIEVLSYNEEKGRFARLQTISTLPEDYHGANGVAAIRISSDGKFLYTSNRGHDSLTTYKVSPLGTKLETIGWTNTEGHIPRDFNFNKTEDYIIVAHQESDNLSLFLRDKKTGTLTLEQKDFYAPEITCVLPLLEHHHHHH	not soluble
LRASEIMNRTLDLQIIMDDLLNLLLKEFKLDLAVIRLVDEKGVLRVRSYSGKGIAGIAGKDWEPEIETYIGEAFLSNRLQFVNDTQYMTKPLTRELMQKEGIKSFAHIPISRKGEPPFGILSVFSRTIVGLFNEPFLNLLESLAGQLAQAVKIVTEMEAKEREREEKERILLENA	soluble
MAHHHHHHMNAVKEADVVFLEAYTSFLINSNAEKLAGIYGKPVILADREMVESGAVLDDAKVKKVVLLVVGDVFGATTHSDLIVRCNRQGIESKIVHNASIINAVGCCGLQLYRFGQVISLCFWTETWRPDSWYERLQSNRAAGIHTLVLLDIKVKEISDENLARGRKIYEPPRYMTIRQAIEQILEVEGYKQGGAVAADGSTFAVGLARVGSESQQVVAGTMKDLLSVDFGAPLHSLVIAGDVHDCEQEHVDLFRMAGQ	not soluble
MSLGYLNNVTGYREDLLANRAIVKHGNFALLTPDGLVKNIIPGFENCDATILSTPKLGASFVDYLVTLHQNGGNQQGFGGEGIETFLYVISGNITAKAEGKTFALSEGGYLYCPPGSLMTFVNAQAEDSQIFLYKRCYVPVEGYAPWLVSGNASELERIHYEGMDDVILLDFLPKELGFDMNMHILSFAPGASHGYIETHVQEHGAYILSGQGVYNLDNNWIPVKKGDYIFMGAYSLQAGYGVGRGEAFSYIYSKDCNRDVEIEGGSHHHHHH	soluble
